Entries and their measured % Inhibition of Binding hMC2-R follow.
# measurement_target: hMC2-R (Homo sapiens, UniProt P41968)
# Construct: expressed in transfected cells; host or cells: HEK-293
# Sequence (P41968 whole entry): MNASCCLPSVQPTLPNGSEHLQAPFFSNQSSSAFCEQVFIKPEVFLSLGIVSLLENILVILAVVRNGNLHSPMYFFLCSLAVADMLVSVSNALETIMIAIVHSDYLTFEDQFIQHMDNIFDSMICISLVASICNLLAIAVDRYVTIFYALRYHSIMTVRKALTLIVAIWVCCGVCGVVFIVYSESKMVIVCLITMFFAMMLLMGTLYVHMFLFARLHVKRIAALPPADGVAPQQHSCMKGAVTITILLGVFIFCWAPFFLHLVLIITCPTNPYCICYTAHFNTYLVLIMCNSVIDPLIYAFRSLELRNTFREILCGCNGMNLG
# test_summary: Competitive binding assay of additional compounds, Table 6 hMC2-R
# particulars: 1 μM, mean of triplicate
Non-standard residues stand in square brackets, D forms with d. No end group written: not given here. 1Nal = N[C@@H](Cc1cccc2ccccc12)C(=O)O; 2Nal = N[C@@H](Cc1ccc2ccccc2c1)C(=O)O; Nle = CCCC[C@H](N)C(=O)O; Ac5c = NC1(C(=O)O)CCCC1
Give the number; % is assumed, so skip it.

Recorded results for 8 substances are shown here.
{"substance": "Tic-D-Nal-2′-Arg-Trp-Cys-NH2", "% Inhibition of Binding hMC2-R / %": 52}
{"substance": "Nal 2′-D-Phe-Arg-Cys-Trp-NH2 ([2Nal][dF]RCW-NH2; also: metal complex)", "% Inhibition of Binding hMC2-R / %": 13}
{"substance": "Nal 1′-D-Phe-Arg-Cys-Trp-NH2 ([1Nal][dF]RCW-NH2; also: metal complex)", "% Inhibition of Binding hMC2-R / %": 6}
{"substance": "D-Nal 1′-D-Phe-Arg-Trp-Cys-NH2", "% Inhibition of Binding hMC2-R / %": 0}
{"substance": "Amc-D-Phe-Arg-Cys-Trp-NH2", "% Inhibition of Binding hMC2-R / %": 0}
{"substance": "Amb-D-Phe-Arg-Trp-Cys-NH2", "% Inhibition of Binding hMC2-R / %": 0}
{"substance": "Ser(Bzl)-D-Phe-Arg-Trp-Cys-NH2 ({Ser(Bzl)}-[dF]RWC-NH2; also: metal complex)", "% Inhibition of Binding hMC2-R / %": 0}
{"substance": "Ac-Leu-His-D-Phe-Arg-Cys-Trp-NH2 ({Ac-Leu-H2N}-[dF]RCW-NH2; not fully specified; printed as Ac-Leu-His-D-Phe-Arg-Cys-Trp-NH2)", "% Inhibition of Binding hMC2-R / %": 0}

For the substance 1-amino-1-cyclopentane carboxyl-D-Phe-Arg-Cys-Trp-NH2 ([Ac5c][dF]RCW-NH2; N-terminus assumed; SMILES N=C(N)NCCC[C@H](NC(=O)[C@@H](Cc1ccccc1)NC(=O)C1(N)CCCC1)C(=O)N[C@@H](CS)C(=O)N[C@@H](Cc1c[nH]c2ccccc12)C(N)=O) , report % Inhibition of Binding hMC2-R.
0

Report measured % Inhibition of Binding hMC2-R; entry is Ac-Nle-Ala-D-Tyr-D-Phe-Arg-Cys-Trp-NH2 (Ac-[Nle]A[dY][dF]RCW-NH2; not fully specified; printed as Ac-Nle-Ala-D-Tyr-D-Phe-Arg-Cys-Trp-NH2)
0

For the substance Ac-Ala-His-D-Phe-Arg-Cys-Trp-NH2 ({Ac-Ala-H2N}-[dF]RCW-NH2; not fully specified; printed as Ac-Ala-His-D-Phe-Arg-Cys-Trp-NH2) , give its reported % Inhibition of Binding hMC2-R.
0

Could you please provide reported % Inhibition of Binding hMC2-R for Ac-Ala-Ala-His-D-Phe-Arg-Cys-Trp-NH2 ({Ac-Ala-Ala-H2N}-[dF]RCW-NH2; not fully specified; printed as Ac-Ala-Ala-His-D-Phe-Arg-Cys-Trp-NH2) ? Thanks!
0

Provide only the value of recorded % Inhibition of Binding hMC2-R for D-Igl-D-Nal 2′-Arg-Trp-Cys-NH2
73
